system: human ghrelin receptor (human, UniProt Q92847 1-366)
Sequence (Q92847 whole entry): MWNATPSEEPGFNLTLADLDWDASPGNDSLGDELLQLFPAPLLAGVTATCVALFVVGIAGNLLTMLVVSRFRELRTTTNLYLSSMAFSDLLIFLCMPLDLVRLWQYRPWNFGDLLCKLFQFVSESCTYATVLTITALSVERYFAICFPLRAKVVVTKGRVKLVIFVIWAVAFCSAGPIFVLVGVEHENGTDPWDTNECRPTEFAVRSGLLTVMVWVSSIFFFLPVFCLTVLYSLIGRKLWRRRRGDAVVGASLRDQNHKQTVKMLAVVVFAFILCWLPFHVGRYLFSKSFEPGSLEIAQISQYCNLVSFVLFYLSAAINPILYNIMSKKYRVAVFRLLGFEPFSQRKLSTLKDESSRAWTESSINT
assay: cell-based or functional assay
Where no end group is shown, it is not given here. [ ]: non-standard residue; d: D form. d1Nal = N[C@H](Cc1cccc2ccccc12)C(=O)O; Nva = CCC[C@H](N)C(=O)O
measurement-name: x-fold (EC50) compared to K-(D-1-Nal)-FwLL-NH2 (fold)

binder | value-observed
K[d1Nal][Nva][dW]LL-NH2 (N-terminus assumed; SMILES CCC[C@H](NC(=O)[C@@H](Cc1cccc2ccccc12)NC(=O)[C@@H](N)CCCCN)C(=O)N[C@H](Cc1c[nH]c2ccccc12)C(=O)N[C@@H](CC(C)C)C(=O)N[C@@H](CC(C)C)C(N)=O) [K-(D-1-Nal)-(L-Nva)-wLL-NH2] | 146
KXXXLL (1-naphthyl-D-alanine (D-1-Nal) at 2; 3-cyclohexyl-L-alanine (L-Cha) at 3; D-Trp at 4; C-terminal amide) [K-(D-1-Nal)-(L-Cha)-wLL-NH2] | 28.5
KXXXLL (1-naphthyl-D-alanine (D-1-Nal) at 2; D-Phe at 3; D-Trp at 4; C-terminal amide) [K-(D-1-Nal)-(D-Phe)-wLL-NH2] | 35.2
